- System: Chondrozyten
- ASSAY_OVERVIEW: IL-1-induced chondrocytic chondrolysis in chondrocyte agarose culture, 35S-sulfate incorporation; also: test concentration or dose not given here
- ASSAY_SETUP: agarose cell culture with 5 u/ml human rec. IL-1 alpha; factor relative to IL-1 treated control
Entries annotated with measured Stimulationsfaktor der Proteoglykansynthese
VALUE_KIND: Stimulationsfaktor der Proteoglykansynthese

molecule="CCOP(=O)(OCC)C(Nc1ccccn1)c1cc(C(C)(C)C)c(O)c(C(C)(C)C)c1 (stereo not shown)" observed_result=1,2
molecule="CCN(CC)CCNC(c1cc(C(C)(C)C)c(O)c(C(C)(C)C)c1)[PH](=O)O (stereo not shown)" observed_result=1,2
molecule="CC(C)(C)c1cc(C(Nc2ccc(Cl)cc2)P(C)(=O)O)cc(C(C)(C)C)c1O (stereo not shown)" observed_result=3,5
molecule="CCCOP(=O)(OCCC)C(NCc1ccc2c(c1)OCO2)c1cc(C(C)(C)C)c(O)c(C(C)(C)C)c1 (stereo not shown)" observed_result=4,3
